measurement notes: chemical genetic growth profiling, strain panel (AID 1159580);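 note: tested at 20 µM; growth read once vehicle control cultures reached saturation at 30 °C; 1 = growth at the plate median or of vehicle wells; lower values mean less growth of the strain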
conditions: S. cerevisiae deletion strains, growth OD, locus YJL134W, strain LCB3, active compounds read low
The campaign covered roughly 5,500 compounds. About 2,000 (36%) were called active. Roughly 18% stayed inconclusive and do not appear here. This is one part of the list.
property measured: normalized growth
Answer using only a numeral; do not append any unit.

// below: answered molecules
1. COc1cc(C(=O)O[C@H]2CC[C@@]3(C)[C@@H]4CC[C@H]5[C@]6(O)C[C@H](O)[C@@]7(O)[C@@H](CN8C[C@@H](C)CC[C@H]8[C@@]7(C)O)[C@]6(O)C[C@@]53O[C@]24O)cc(OC)c1OC ... 0.985
2. OC(CCN1CCCCC1)(c1ccccc1)C1CCCCC1 (configuration not stated) ... 1.01
3. NC12CC3CC(CC(C3)C1)C2 ... 1.01
4. OC(CCN1CCCC1)(c1ccccc1)C1CCCCC1 (configuration not stated) ... 0.994

Exercise: Given C/C=C(/C)C(=O)OC1CCC2(C)C3CCC4C5(O)CC(O)C6(O)C(CN7CC(C)CCC7C6(C)O)C5(O)CC42OC13O (configuration not stated) , state its recorded normalized growth.
Key: 0.983

Exercise: Please answer likewise for CCC(C)C(NC)C(=O)O (configuration not stated)
Key: 0.967

Exercise: Same question, N=C(N)c1ccc(OCCCCCOc2ccc(C(=N)N)cc2)cc1 this time
Key: 0.967

* * *

measurement notes: chemical genetic growth profiling, strain panel (AID 1159580);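 note: tested at 20 µM; growth read once vehicle control cultures reached saturation at 30 °C; 1 = growth at the plate median or of vehicle wells; lower values mean less growth of the strain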
conditions: S. cerevisiae deletion strains, growth OD, locus YDL185W, strain tfp1, active compounds read low
Hit rate of the full screen: of about 5,500 compounds, about 2,000 (36%) were called active. About 18% were inconclusive and are not listed. The list shows a part of the results.
Consider the following molecules and their measured normalized growth readings.
Just the number, please, no unit after it.

Solved entries:
1) CC(C)(C#N)O[C@@H]1O[C@H](CO)[C@@H](O)[C@H](O)[C@H]1O ... 0.983
2) CC1C(=O)OC2C1CCC1(C)C=CC(=O)C3(C)OC213 (stereo not drawn) ... 1.01
3) C[C@@H]1CC[C@]2(C(=O)O)CC[C@]3(C)C(=CCC4[C@@]5(C)CC[C@H](O)C(C)(C)C5CC[C@]43C)C2[C@H]1C (stereo partly drawn) ... 0.999
4) C[C@@H]1C(=O)O[C@H]2[C@H]1CC[C@@]1(C)C=CC(=O)[C@@]3(C)O[C@@]213 ... 0.986
5) Cc1cc(O)cc(C)c1Cl ... 0.988
6) NC12CC3CC(CC(C3)C1)C2 ... 1.02

Exercise: Given the molecule Cc1cc(O)cc(O)c1C(=O)O , what is its reported normalized growth?
Key: 0.988

Exercise: Input COc1ccc2c(c1)c(CC(=O)OCC(=O)O)c(C)n2C(=O)c1ccc(Cl)cc1
Key: 1.02

Exercise: What would you report for C#C[C@]1(O)CCC2C3CCC4=CC(=O)CC[C@@H]4C3CC[C@@]21CC (stereo partly drawn) ?
Key: 0.982

Exercise: Another molecule: Cc1cc(O)ccc1Cl
Key: 0.986

Exercise: Please give the result for CC1(C)CC[C@]2(C)CC[C@]3(C)C(=CCC4[C@@]5(C)CC[C@H](O)C(C)(C)C5CC[C@]43C)C2C1 (stereo partly drawn) too.
Key: 0.954
